Target: Mitochondrial respiratory complex II (Rattus norvegicus, UniProt P21913+Q641Z9+Q6PCT8+Q920L2)
Construct: measured spectrophotometrically using isolated rat heart mitochondria; from tissue; host or cells: rat heart mitochondria / sub-mitochondrial particles
Sequence (Q920L2 35-656): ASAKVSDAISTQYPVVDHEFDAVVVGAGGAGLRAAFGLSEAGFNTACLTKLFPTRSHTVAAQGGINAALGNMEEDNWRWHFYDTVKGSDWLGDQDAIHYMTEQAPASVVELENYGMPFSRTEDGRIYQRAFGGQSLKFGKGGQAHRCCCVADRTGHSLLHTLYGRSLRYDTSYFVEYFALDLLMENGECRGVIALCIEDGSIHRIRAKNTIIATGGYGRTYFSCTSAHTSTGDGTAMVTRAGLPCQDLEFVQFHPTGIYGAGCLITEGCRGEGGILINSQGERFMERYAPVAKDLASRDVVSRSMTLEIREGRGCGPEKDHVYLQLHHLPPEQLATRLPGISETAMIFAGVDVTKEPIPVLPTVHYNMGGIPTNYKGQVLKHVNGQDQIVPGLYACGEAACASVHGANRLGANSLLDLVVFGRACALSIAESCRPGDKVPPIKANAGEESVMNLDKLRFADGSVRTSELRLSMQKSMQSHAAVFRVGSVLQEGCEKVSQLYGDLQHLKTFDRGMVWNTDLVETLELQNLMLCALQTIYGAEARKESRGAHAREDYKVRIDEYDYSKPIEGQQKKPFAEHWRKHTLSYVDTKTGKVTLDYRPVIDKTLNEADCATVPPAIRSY
Sequence (P21913 31-282): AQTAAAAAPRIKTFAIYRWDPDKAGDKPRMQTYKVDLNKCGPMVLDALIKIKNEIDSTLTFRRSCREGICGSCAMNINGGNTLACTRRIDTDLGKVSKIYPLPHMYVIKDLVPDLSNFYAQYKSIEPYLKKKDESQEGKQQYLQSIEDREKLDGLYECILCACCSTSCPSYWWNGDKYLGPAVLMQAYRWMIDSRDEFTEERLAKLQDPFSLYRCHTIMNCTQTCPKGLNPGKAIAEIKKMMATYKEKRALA
Sequence (Q641Z9 1-169): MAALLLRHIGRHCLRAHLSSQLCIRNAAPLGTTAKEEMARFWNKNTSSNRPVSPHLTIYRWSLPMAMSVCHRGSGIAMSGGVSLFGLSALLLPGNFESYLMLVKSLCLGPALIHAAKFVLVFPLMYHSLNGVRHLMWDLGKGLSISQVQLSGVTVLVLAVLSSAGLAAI
Sequence (Q6PCT8 57-159): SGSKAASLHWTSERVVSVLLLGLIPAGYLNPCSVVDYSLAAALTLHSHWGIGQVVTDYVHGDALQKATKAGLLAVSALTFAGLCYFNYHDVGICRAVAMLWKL
Assay: Mitochondrial respiratory complex II inhibition assay
Type: biochemical
Details: 100 μM, relative to DMSO control
readout.label: inhibition of CII

Here are 4 compounds together with their reported answers.
compound | inhibition of CII
O=S1(=O)N=C(NC2CCCC2)Nc2ccc(F)cc21 [Compound 22a] | inactive
O=S1(=O)N=C(NCCCc2ccccc2)Nc2ccc(Br)cc21 [Compound 23c] | 47%
O=S1(=O)N=C(NCc2ccc(Cl)cc2)Nc2ccccc21 [Compound 16d] | inactive
O=S1(=O)N=C(NCc2ccccc2)Nc2cc(Cl)ccc21 [Compound 21b] | inactive

Check the records and state inhibition of CII for O=S1(=O)N=C(NCc2ccc(Cl)cc2)Nc2ccc(Br)cc21 [Compound 16c] 45%

---

For each of the compounds below, state its inhibition at 100 µM.
Biological target: Mitochondrial respiratory complex II (Rattus norvegicus, UniProt P21913+Q641Z9+Q6PCT8+Q920L2)
Construct: measured spectrophotometrically using isolated rat heart mitochondria; from tissue; host or cells: rat heart mitochondria / sub-mitochondrial particles
Test: Mitochondrial respiratory complex II inhibition assay
Assay type: biochemical
Details: 100 μM, relative to DMSO control; read-out: inhibition of CII
Number only, in %; omit the unit.

Check the records and state inhibition at 100 µM for O=S1(=O)N=C(NCCCc2ccccc2)Nc2ccc(Br)cc21 [Compound 23c] 46

Check the records and state inhibition at 100 µM for Cc1ccc(CNC2=NS(=O)(=O)c3cc(F)ccc3N2)cc1 [Compound 27a] 23

Check the records and state inhibition at 100 µM for CC1=Nc2ccc(Cl)cc2S(=O)(=O)N1 [Diazoxide, reference compound] 9

Check the records and state inhibition at 100 µM for C=CCNC1=NS(=O)(=O)c2cc(F)ccc2N1 [Compound 32a] 38

Check the records and state inhibition at 100 µM for CC(NC1=NS(=O)(=O)c2cc(F)ccc2N1)c1ccccc1 (centres unmarked) [Compound 24a] 22

Check the records and state inhibition at 100 µM for O=S1(=O)N=C(NCc2ccccc2)Nc2cc(Cl)ccc21 [Compound 21b] 0

Check the records and state inhibition at 100 µM for O=S1(=O)N=C(NCCCc2ccccc2)Nc2ccc(F)cc21 [Compound 23a] 14

Check the records and state inhibition at 100 µM for O=S1(=O)N=C(NCCc2ccc(Cl)cc2)Nc2ccc(F)cc21 [Compound 37a] 34

Check the records and state inhibition at 100 µM for CC(NC1=NS(=O)(=O)c2cc(Br)ccc2N1)c1ccccc1 (centres unmarked) [Compound 24c] 55

Check the records and state inhibition at 100 µM for O=S1(=O)N=C(NCc2ccc(C(F)(F)F)cc2)Nc2cc(Cl)ccc21 [Compound 25b] 19

Check the records and state inhibition at 100 µM for COc1ccccc1CNC1=NS(=O)(=O)c2cc(F)ccc2N1 [Compound 26a] 37

---

Target: Mitochondrial respiratory complex II (Rattus norvegicus, UniProt P21913+Q641Z9+Q6PCT8+Q920L2)
Construct: measured spectrophotometrically using isolated rat heart mitochondria; from tissue; host or cells: rat heart mitochondria / sub-mitochondrial particles
Test: Mitochondrial respiratory complex II inhibition assay
Assay type: biochemical
Conditions: 100 μM, relative to DMSO control; read-out: inhibition of CII
Lab note: compare inhibition at 100 µM against 50%. Equal or greater, write 1.0. Smaller, write 0.0.

Item O=S1(=O)N=C(NCCc2c[nH]c3ccccc23)Nc2ccc(F)cc21 [Compound 36a] with inhibition at 100 µM of 50% or above? 0.0

Item O=S1(=O)NC(=S)Nc2ccc(Br)cc21 [Compound 12c] with inhibition at 100 µM of 50% or above? 1.0

Item O=S1(=O)N=C(NCc2ccc(OC(F)(F)F)cc2)Nc2ccc(Br)cc21 [Compound 30c] with inhibition at 100 µM of 50% or above? 0.0

Item O=S1(=O)N=C(NCCCc2ccccc2)Nc2ccccc21 [Compound 23d] with inhibition at 100 µM of 50% or above? 0.0

Item COc1ccc(CNC2=NS(=O)(=O)c3cc(Br)ccc3N2)cc1 [Compound 20c] with inhibition at 100 µM of 50% or above? 1.0

Item O=S1(=O)NC(=S)Nc2cc(Cl)ccc21 [Compound 12b] with inhibition at 100 µM of 50% or above? 1.0

Item O=S1(=O)N=C(NCCc2c[nH]c3ccccc23)Nc2cc(Cl)ccc21 [Compound 36b] with inhibition at 100 µM of 50% or above? 0.0

Item O=S1(=O)N=C(NCCCc2ccccc2)Nc2cc(Cl)ccc21 [Compound 23b] with inhibition at 100 µM of 50% or above? 0.0

---

Test system: human embryonic kidney (HEK293) cells
Experiment: MTS cytotoxicity assay in HEK293 cells
Type: cell-based
Conditions: 72 hours, mean ± SD n = 3
readout.label: IC50 (µM)
Number only, in µM; omit the unit.

Check the records and state IC50 for O=S1(=O)N=C(NCCCCc2ccccc2)Nc2ccc(Cl)cc21 [Compound 65e] 23.4

Check the records and state IC50 for CCCCCC(=O)c1c(O)nc(OC)c(OC)c1O [AA5-16c, reference compound] 25.9

Check the records and state IC50 for O=S1(=O)N=C(NCc2ccccc2OC(F)(F)F)Nc2cc(Cl)ccc21 [Compound 43b] 30.5

Check the records and state IC50 for O=S1(=O)N=C(NCc2ccccc2)Nc2cc(Cl)ccc21 [Compound 21b] 102

Check the records and state IC50 for O=S1(=O)N=C(NCc2ccc(F)cc2F)Nc2cc(Cl)ccc21 [Compound 29b] 129

Data origin, for the record: patent US20230219912A1
